- experimental protocol: Pharmacokinetics in SD rats
- Format: in vivo
- measurement parameters: rat, in vivo; IV Bolus; read-out: Clp
Starred links: 1 amine or outer side, 2 acyl side, 3 side chain; linkers in the order of their positions; H or OH if unused. Positions of bridges follow the written chain, without caps; N, C: chain ends. Non-standard residues stand in square brackets, D forms with d. Chains are numbered I, II in the order given. X1 = O=C(CCOCCOCCOCCN(CCOCCOCCOCCn1cc(CCC(=O)[*:2])nn1)CCOCCOCCOCCn1cc(CCC(=O)[*:3])nn1)[*:1]; TATA = O=C(CC[*:1])N1CN(C(=O)CC[*:2])CN(C(=O)CC[*:3])C1; Hyp = O=C(O)[C@@H]1C[C@@H](O)CN1; hArg = N=C(N)NCCCC[C@H](N)C(=O)O; tBuAla = CC(C)(C)C[C@H](N)C(=O)O; Nle = CCCC[C@H](N)C(=O)O
measured parameter: clearance

{"columns": ["substance", "experimental value"],
 "data": [
  ["I: A[hArg]DC[Hyp]LVNPLCLHP[dD]W[hArg]C-NH2 / II: Ac-C[tBuAla]PE[dK]PYCFADPY[Nle]CA-NH2 / III: Ac-C[tBuAla]PE[dK]PYCFADPY[Nle]CA-NH2 (linker I:4-I:11-I:18, II:1-II:8-II:15, III:1-III:8-III:15 via TATA; linker I:N-II:5-III:5 via X1) [BCY12491]", "20 mL/min/kg"]
]}

###

- target entity: CD137 (Homo sapiens)
- Sequence (Q07011 24-255): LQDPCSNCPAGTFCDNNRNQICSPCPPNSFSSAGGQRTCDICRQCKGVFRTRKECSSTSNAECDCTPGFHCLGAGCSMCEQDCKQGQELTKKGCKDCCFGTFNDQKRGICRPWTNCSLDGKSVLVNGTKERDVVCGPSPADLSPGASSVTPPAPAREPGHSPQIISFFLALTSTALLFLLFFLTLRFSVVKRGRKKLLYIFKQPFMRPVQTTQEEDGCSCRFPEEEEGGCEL
- experimental protocol: CD137 reporter assay (Promega, Jurkat cells) in co-culture with EphA2-expressing tumor cells (A549, PC3, HT29)
- Assay type: cell-based
- Set-up: host or cells: Jurkat reporter cells
- measurement parameters: CD137 reporter coculture assay with PC3 tumor cells; read-out: Emax (fold induction over background)
Starred links: 1 amine or outer side, 2 acyl side, 3 side chain; linkers in the order of their positions; H or OH if unused. Positions of bridges follow the written chain, without caps; N, C: chain ends. Non-standard residues stand in square brackets, D forms with d. Chains are numbered I, II in the order given. X1 = O=C(CCOCCOCCOCCN(CCOCCOCCOCCn1cc(CCC(=O)[*:2])nn1)CCOCCOCCOCCn1cc(CCC(=O)[*:3])nn1)[*:1]; TATA = O=C(CC[*:1])N1CN(C(=O)CC[*:2])CN(C(=O)CC[*:3])C1; d1Nal = N[C@H](Cc1cccc2ccccc12)C(=O)O; Hyp = O=C(O)[C@@H]1C[C@@H](O)CN1; hArg = N=C(N)NCCCC[C@H](N)C(=O)O; tBuAla = CC(C)(C)C[C@H](N)C(=O)O; Nle = CCCC[C@H](N)C(=O)O

{"columns": ["substance", "target entity", "fold induction"],
 "data": [
  ["I: A[hArg]DC[Hyp]LVNPLCLEP[dA]WTC-NH2 / II: Ac-C[tBuAla]PE[dK]PYCFADPY[Nle]CA-NH2 / III: Ac-C[tBuAla]PE[dK]PYCFADPY[Nle]CA-NH2 (linker I:4-I:11-I:18, II:1-II:8-II:15, III:1-III:8-III:15 via TATA; linker I:N-II:5-III:5 via X1) [BCY13046]", "CD137 (Homo sapiens)", 57.6],
  ["I: A[hArg]EC[Hyp]LVNPLCLHP[dE]W[hArg]C-NH2 / II: Ac-C[tBuAla]PE[dK]PYCFADPY[Nle]CA-NH2 / III: Ac-C[tBuAla]PE[dK]PYCFADPY[Nle]CA-NH2 (linker I:4-I:11-I:18, II:1-II:8-II:15, III:1-III:8-III:15 via TATA; linker I:N-II:5-III:5 via X1) [BCY12978]", "CD137 (Homo sapiens)", 78.1],
  ["I: A[hArg]DC[Hyp]LVNPLCLHP[d1Nal]W[hArg]C-NH2 / II: Ac-C[tBuAla]PE[dK]PYCFADPY[Nle]CA-NH2 / III: Ac-C[tBuAla]PE[dK]PYCFADPY[Nle]CA-NH2 (linker I:4-I:11-I:18, II:1-II:8-II:15, III:1-III:8-III:15 via TATA; linker I:N-II:5-III:5 via X1) [BCY13270]", "CD137 (Homo sapiens)", 42.5]
]}
